system: PPARg:RXRa 90nM:30nM, anti-RXR (NR concentration 90 nM, RXRa partner concentration 30 nM); experiment: PBM binding z-score (relative to random genomic background probes); higher = stronger binding; sequences stand for … in GC…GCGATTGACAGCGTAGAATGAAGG
EXPERIMENTAL_READOUT: PBM binding z-score
Keep the answer to the number alone.

These solved cases illustrate the format of a correct answer.
sequence_content=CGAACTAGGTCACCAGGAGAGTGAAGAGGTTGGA assayed_target="PPARg:RXRa 90nM:30nM, anti-RXR (NR concentration 90 nM, RXRa partner concentration 30 nM)" reported_measurement=6.24
sequence_content=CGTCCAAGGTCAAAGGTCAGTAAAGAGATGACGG assayed_target="PPARg:RXRa 90nM:30nM, anti-RXR (NR concentration 90 nM, RXRa partner concentration 30 nM)" reported_measurement=9.37
sequence_content=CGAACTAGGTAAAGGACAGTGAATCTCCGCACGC assayed_target="PPARg:RXRa 90nM:30nM, anti-RXR (NR concentration 90 nM, RXRa partner concentration 30 nM)" reported_measurement=0.891

Provide the reported PBM binding z-score (system: PPARg:RXRa 90nM:30nM, anti-RXR (NR concentration 90 nM, RXRa partner concentration 30 nM)) for "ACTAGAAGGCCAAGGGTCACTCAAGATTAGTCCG"
7.96

Provide the reported PBM binding z-score (system: PPARg:RXRa 90nM:30nM, anti-RXR (NR concentration 90 nM, RXRa partner concentration 30 nM)) for "TCTCGGAGGACACGAAAGGTCTGAGCTCGACATC"
1.49

----------
system: PPARg:RXRa 270nM:90nM, anti-RXR (NR concentration 270 nM, RXRa partner concentration 90 nM); assay: PBM binding z-score (relative to random genomic background probes); higher = stronger binding; sequences stand for … in GC…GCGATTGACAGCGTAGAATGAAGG
EXPERIMENTAL_READOUT: PBM binding z-score
Keep the answer to the number alone.

These solved cases illustrate the format of a correct answer.
sequence_content=CTAACTAGGTCACCAGGACAGTGAAGAGGTTGGA experimental_readout="PBM binding z-score" reported_measurement=7.69
sequence_content=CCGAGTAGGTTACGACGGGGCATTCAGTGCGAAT experimental_readout="PBM binding z-score" reported_measurement=1.17

// fetch PBM binding z-score given entry "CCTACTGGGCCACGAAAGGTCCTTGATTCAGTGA"
1.23

// fetch PBM binding z-score given entry "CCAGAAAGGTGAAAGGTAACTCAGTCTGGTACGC"
6.26

// fetch PBM binding z-score given entry "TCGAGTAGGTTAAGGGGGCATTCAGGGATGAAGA"
5.78

// fetch PBM binding z-score given entry "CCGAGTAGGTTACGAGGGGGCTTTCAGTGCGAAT"
2.7

// fetch PBM binding z-score given entry "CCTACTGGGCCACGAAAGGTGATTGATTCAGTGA"
1.68

----------
Each entry below carries its reported PBM binding z-score.
test system: LXRb homodimer (NR concentration 270 nM); assay: PBM binding z-score (relative to random genomic background probes); higher = stronger binding; sequences stand for … in GC…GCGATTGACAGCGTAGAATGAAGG
Keep the answer to the number alone.

sequence_content=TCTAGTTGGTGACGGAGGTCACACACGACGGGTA reported_measurement=0.435

// fetch PBM binding z-score given entry "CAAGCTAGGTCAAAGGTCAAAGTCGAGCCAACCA"
2.73

// fetch PBM binding z-score given entry "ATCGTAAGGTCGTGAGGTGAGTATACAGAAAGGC"
0.775

// fetch PBM binding z-score given entry "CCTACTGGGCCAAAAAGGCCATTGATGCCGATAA"
-1.1

// fetch PBM binding z-score given entry "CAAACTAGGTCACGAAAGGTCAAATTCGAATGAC"
3.75

// fetch PBM binding z-score given entry "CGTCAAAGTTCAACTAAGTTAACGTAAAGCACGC"
2.56
